Origin of the recorded values: patent US11072616B2

# METHOD SUMMARY: Plasma protein binding, equilibrium dialysis, mouse plasma
# CONDITION SET: CD-1, mouse, 50% plasma (K2EDTA)
READOUT TYPE: recovery at 5 h, 1 microM (%)
Output spec: scalar in %, unitless text.

# query: recovery at 5 h, 1 microM of entry CC(C)NCC(O)COc1cccc2ccccc12 (stereo not shown) [Propranolol, reference compound]
93

----------
# METHOD SUMMARY: Plasma protein binding, equilibrium dialysis, mouse plasma
# CONDITION SET: CD-1, mouse, 50% plasma, % unbound (Cbuffer/Cplasma) Mouse plasma Average, average of 3 replicates
READOUT TYPE: fraction unbound at 5 h, 1 microM
// return just the number, without any unit appended

{"MOLECULE": "CC(C)C[C@@H]1NC(=O)[C@H](Cc2c[nH]c3ccccc23)NC(=O)[C@@H]2CCCN2[C@H](C(=O)NC(C)(C)C)[C@H](C)NC(=O)[C@H]([C@@H](C)O)NC(=O)[C@H](CC(=O)O)NC1=O", "READOUT TYPE": "fraction unbound at 5 h, 1 microM", "RECORDED VALUE": 0.769}

# query: fraction unbound at 5 h, 1 microM of entry CC(C)NCC(O)COc1cccc2ccccc12 (centres unmarked) [Propranolol, reference compound]
0.21
